assay: Cmax in rat at 400 mg/kg, po qd treated for 14 days; assay type: ADME, organism-based; set-up: dose 400 mg/kg, route oral; details: in vivo
EXPERIMENTAL_READOUT: Cmax (µg/mL)

>>> measured_number("O=C(O)CCCOc1cccc(CCCCCCOc2cc(-c3cccc(F)c3)cc(-c3ccc4c(c3)OCO4)c2)c1CCC(=O)O")
124

----------
assay: Cmax in Sprague-Dawley rat at 10 mg/kg, po; format: ADME, organism-based; set-up: dose 10 mg/kg, route oral; details: in vivo
EXPERIMENTAL_READOUT: Cmax (nM)

>>> measured_number("O=C(O)CCCOc1cccc(CCCCCCOc2cc(-c3cccc(F)c3)cc(-c3ccc4c(c3)OCO4)c2)c1CCC(=O)O")
2250
>>> measured_number("O=C(O)CCCOc1cccc(CCCCCCOc2cc(-c3ccncc3)cc(-c3ccncc3)c2)c1CCC(=O)O")
310
>>> measured_number("O=C(O)CCCOc1cccc(CCCCCCOc2cc(-c3ccccc3)cc(-c3ccccc3)n2)c1CCC(=O)O")
2110
>>> measured_number("O=C(O)CCCOc1cccc(CCCCCCOc2cc(-c3ccsc3)cc(-c3ccc4c(c3)OCO4)c2)c1CCC(=O)O")
6210
